# method description: Oral bioavailability in Han Wistar rat at 2 mg/kg by LC-MS/MS analysis
# Type: ADME, organism-based
# assay conditions: in vivo
Listing of entries alongside the reported bioavailability.

| smiles input | bioavailability, % |
| --- | --- |
| COc1cc(C(N)=O)c(F)c2nc(-c3ccc(N4CCC[C@@H]4C)nc3)n(C[C@@H]3CN(C)CCO3)c12 | 100 |
| CNC(=O)c1cc(OC)c2c(nc(-c3ccc(N4[C@@H](C)CC[C@@H]4C)nc3)n2C[C@@H]2CN(C)CCO2)c1F | 83 |

###

# method description: Oral bioavailability in Han Wistar rat at 2.1 mg/kg by LC-MS/MS analysis
# Assay type: ADME, organism-based
# assay conditions: in vivo
measured quantity: bioavailability (%)

| smiles input | value |
| --- | --- |
| CCNC(=O)c1cc(OC)c2c(c1)nc(-c1ccc(N3[C@@H](C)CC[C@@H]3C)nc1)n2C[C@@H]1CN(C)CCO1 | 40 |

###

# method description: Half life in Han Wistar rat at 1.9 mg/kg, iv by LC-MS/MS analysis
# Type: ADME, organism-based
# assay conditions: in vivo
measured quantity: half-life

| smiles input | measured quantity | value |
| --- | --- | --- |
| COc1cccc2nc(-c3ccc(N4[C@@H](C)CC[C@@H]4C)nc3)n(C[C@@H]3CNCCO3)c12 | half-life | 5.1 h |

###

Listing of entries alongside the reported fraction unbound.
# method description: Plasma protein binding in CD1 mouse at 5 mg/kg, po by LC-MS/MS analysis
# Type: ADME, organism-based
# assay conditions: read-out: PPB (converted)

| smiles input | fraction unbound |
| --- | --- |
| COc1cc(C(N)=O)c(F)c2nc(-c3ccc(N4CCC[C@@H]4C)nc3)n(C[C@@H]3CN(C)CCO3)c12 | 0.03 |
| CNC(=O)c1cc(OC)c2c(nc(-c3ccc(N4[C@@H](C)CC[C@@H]4C)nc3)n2C[C@@H]2CN(C)CCO2)c1F | 0.07 |

###

Listing of entries alongside the reported bioavailability.
# method description: Oral bioavailability in CD1 mouse at 5 mg/kg by LC-MS/MS analysis
# Format: ADME, organism-based
# assay conditions: in vivo

| smiles input | bioavailability |
| --- | --- |
| CNC(=O)c1cc(OC)c2c(nc(-c3ccc(N4[C@@H](C)CC[C@@H]4C)nc3)n2C[C@@H]2CN(C)CCO2)c1F | 26% |
| COc1cc(C(N)=O)c(F)c2nc(-c3ccc(N4CCC[C@@H]4C)nc3)n(C[C@@H]3CN(C)CCO3)c12 | 43% |

###

# method description: Volume of distribution at steady state in CD1 mouse at 0.5 mg/kg, iv by LC-MS/MS analysis
# Assay type: ADME, organism-based
# assay conditions: in vivo, read-out: Vdss
measured quantity: Vd (L/kg)

| smiles input | measured quantity | value |
| --- | --- | --- |
| CCNC(=O)c1cc(OC)c2c(c1)nc(-c1ccc(N3[C@@H](C)CC[C@@H]3C)nc1)n2C[C@@H]1CN(C)CCO1 | Vd | 3.4 |

###

# method description: Oral bioavailability in CD1 mouse at 5.1 mg/kg by LC-MS/MS analysis
# Assay type: ADME, organism-based
# assay conditions: in vivo

| smiles input | readout unit | bioavailability |
| --- | --- | --- |
| CCNC(=O)c1cc(OC)c2c(c1)nc(-c1ccc(N3[C@@H](C)CC[C@@H]3C)nc1)n2C[C@@H]1CN(C)CCO1 | % | 35 |
